molecular target: α-amylase (Sus scrofa, UniProt P00690); test: Fluorescence quenching, binding and thermodynamics with α-amylase; settings: Van’t Hoff, 298–310 K
Sequence (P00690 16-511): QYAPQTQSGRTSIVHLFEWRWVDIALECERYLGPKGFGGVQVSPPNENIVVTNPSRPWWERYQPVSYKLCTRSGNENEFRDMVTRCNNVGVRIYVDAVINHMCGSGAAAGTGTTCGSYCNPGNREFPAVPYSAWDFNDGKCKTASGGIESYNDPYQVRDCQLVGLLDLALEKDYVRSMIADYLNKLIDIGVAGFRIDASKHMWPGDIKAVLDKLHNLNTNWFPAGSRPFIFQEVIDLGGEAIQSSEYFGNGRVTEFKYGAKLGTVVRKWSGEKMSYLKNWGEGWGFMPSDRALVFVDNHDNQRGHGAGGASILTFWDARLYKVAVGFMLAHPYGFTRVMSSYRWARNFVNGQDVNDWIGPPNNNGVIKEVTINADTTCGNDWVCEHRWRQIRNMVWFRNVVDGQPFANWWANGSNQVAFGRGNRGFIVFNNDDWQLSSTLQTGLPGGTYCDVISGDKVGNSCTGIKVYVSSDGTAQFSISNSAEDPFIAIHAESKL
Please respond with True when measured ΔH^0 is strictly beneath -30 kcal/mol, and with False in all other cases.

| Compound | Experimental system | Category label |
| --- | --- | --- |
| O=C(O)c1ccc(-c2c3nc(c(-c4ccc(C(=O)O)cc4)c4ccc([nH]4)c(-c4ccc(C(=O)O)cc4)c4nc(c(-c5ccc(C(=O)O)cc5)c5ccc2[nH]5)C=C4)C=C3)cc1 [TCPP] | α-amylase (Sus scrofa, UniProt P00690) | False |
| O=C(O)c1ccc(-c2c3nc(c(-c4ccc(C(=O)O)cc4)c4ccc([nH]4)c(-c4ccc(C(=O)O)cc4)c4nc(c(-c5ccc(C(=O)O)cc5)c5ccc2[nH]5)C=C4)C=C3)cc1.[Cu+2] [Cu–TCPP] | α-amylase (Sus scrofa, UniProt P00690) | False |
| Oc1ccc(-c2c3nc(c(-c4ccc(O)cc4)c4ccc([nH]4)c(-c4ccc(O)cc4)c4nc(c(-c5ccc(O)cc5)c5ccc2[nH]5)C=C4)C=C3)cc1 [THPP] | α-amylase (Sus scrofa, UniProt P00690) | False |
| O=C(O)c1ccc(-c2c3nc(c(-c4ccc(C(=O)O)cc4)c4ccc([nH]4)c(-c4ccc(C(=O)O)cc4)c4nc(c(-c5ccc(C(=O)O)cc5)c5ccc2[nH]5)C=C4)C=C3)cc1.[Ni+2] [Ni–TCPP] | α-amylase (Sus scrofa, UniProt P00690) | True |

Numbers sourced from paper PMC12467033.
